Property: EGFR-L858R mean; scope: individual molecules
Molecular target: T1, EGFR-L858R (Homo sapiens, UniProt P00533, L858R)
T1 construct: with the advantage of testing full-length integral membrane proteins; (GGGGS)2 linker-Cub (human ubiquitin aa 35-76)-GAL4(1-147)-mNFkB(364-550) (C); expressed in transfected cells
Assay: MaMTH EGFR-interactor screen, lentiviral preys against EGFR-L858R bait (interaction score)
Type: cell-based
Details: MaMTH interaction score of prey with EGFR-L858R bait
Method: After lentivirus harvest, target cells (stable 5×GAL4UAS-luciferase reporter-HEK293T cells) were infected at a multiplicity of infection (MOI) of around 0.3-0.4 to ensure single copy integration per cell. […] To calculate a MaMTH-interaction scores, negative controls were averaged and the fold-change of luciferase activity compared to the averaged controls was calculated and defined as the interaction score. […]
Form field (numeric): enter value without unit.

Field: example entries. Status: answers known.
Q: Which measured EGFR-L858R mean value corresponds to CAMLG (protein, UniProt P49069 1-296, looked up) Guided entry of tail-anchored …: MESMAVATDGGERPGVPAGSGLSASQRRAELRRRKLLMNSEQRINRIMGFHRPGSGAEEESQTKSKQQDSDKLNSLSVPSVSKRVVLGDSVSTGTTDQQGGVAEVKGTQLGDKLDSFIKPPECSSDVNLELRQRNRGDLTADSVQRGSRHGLEQYLSRFEEAMKLRKQLISEKPSQEDGNTTEEFDSFRIFRLVGCALLALGVRAFVCKYLSIFAPFLTLQLAYMGLYKYFPKSEKKIKTTVLTAALLLSGIPAEVINRSMDTYSKMGEVFTDLCVYFFTFIFCHELLDYWGSEVP ?
Ans: 7.17

Q: Reported EGFR-L858R mean, molecule TXN (protein, UniProt P10599 2-105, looked up) Thioredoxin: VKQIESKTAFQEALDAAGDKLVVVDFSATWCGPCKMIKPFFHSLSEKYSNVIFLEVDVDDCQDVASECEVKCMPTFQFFKKGQKVGEFSGANKEKLEATINELV : ____
Ans: 7.03

***
Q: What value of EGFR-L858R mean has been reported for the following molecule? CISH (protein, UniProt Q9NSE2 1-258, looked up) Cytokine-inducible …: MVLCVQGPRPLLAVERTGQRPLWAPSLELPKPVMQPLPAGAFLEEVAEGTPAQTESEPKVLDPEEDLLCIAKTFSYLRESGWYWGSITASEARQHLQKMPEGTFLVRDSTHPSYLFTLSVKTTRGPTNVRIEYADSSFRLDSNCLSRPRILAFPDVVSLVQHYVASCTADTRSDSPDPAPTPALPMPKEDAPSDPALPAPPPATAVHLKLVQPFVRRSSARSLQHLCRLVINRLVADVDCLPLPRRMADYLRQYPFQL
Ans: 2.66
